For each of the compounds below, state its pEC50.
Target: human OX2R (Homo sapiens, UniProt O43614)
Construct: expressed in transfected cells; host or cells: Chinese hamster ovary (CHO) cells, kept under G418 selection
Sequence (O43614 1-444): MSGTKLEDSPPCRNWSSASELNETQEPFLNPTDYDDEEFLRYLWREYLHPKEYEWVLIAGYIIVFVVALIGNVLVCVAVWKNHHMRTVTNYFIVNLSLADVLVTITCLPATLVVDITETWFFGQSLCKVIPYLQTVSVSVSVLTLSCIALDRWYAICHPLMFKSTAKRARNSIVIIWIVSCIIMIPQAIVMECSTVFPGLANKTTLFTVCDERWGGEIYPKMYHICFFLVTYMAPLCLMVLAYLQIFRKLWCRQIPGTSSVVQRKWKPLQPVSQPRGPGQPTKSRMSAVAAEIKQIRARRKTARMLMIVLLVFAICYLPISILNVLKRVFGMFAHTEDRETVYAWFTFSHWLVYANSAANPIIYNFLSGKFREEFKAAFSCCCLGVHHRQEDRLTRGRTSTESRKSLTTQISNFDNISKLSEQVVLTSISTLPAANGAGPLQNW
Assay: IPOne (IP-One) orexin receptor agonist assay in CHO cells expressing human OX2R
Type: cell-based
Details: CHO cells expressing human OX2R; IP-One detection; 2 hours incubation; four parameter logistic fit; read-out: OX2R Potency, EC50
Please note pEC50 is a logarithmic value: minus log10 of concentration in mol/L. Answer with that number alone.

Case Cc1ncsc1N1CC[C@H](NS(C)(=O)=O)[C@@H]1CO[C@H]1CC[C@@H](c2ccccc2)CC1 [Example 83] , human OX2R (Homo sapiens, UniProt O43614), pEC50 recorded as 5.97

GET /values?item= Cc1ccncc1N1CC[C@H](NS(C)(=O)=O)[C@@H]1CO[C@H]1CC[C@@H](c2ccccc2)CC1 [Example 81] &system= human OX2R (Homo sapiens, UniProt O43614) returns pEC50: 7.61

---

Answer each item with its documented % max agonist effect (Emax).
Molecular target: human OX2R (Homo sapiens, UniProt O43614)
Construct: expressed in transfected cells; host or cells: Chinese hamster ovary (CHO) cells, kept under G418 selection
Assay: IPOne (IP-One) orexin receptor agonist assay in CHO cells expressing human OX2R
Assay type: cell-based
Settings: human OX2R; percentage of sample raw value/mean max effect (reference compound at 1 uM with 100% activity)
Give a bare numeral; the unit % is implied.

Entry Cn1ccc(N2CC[C@H](NS(C)(=O)=O)[C@@H]2CO[C@H]2CC[C@@H](c3ccccc3)CC2)cc1=O [Example 118] ; assay system human OX2R (Homo sapiens, UniProt O43614); % max agonist effect (Emax) recorded at 100.2

Considering Cn1cnc(N2CC[C@H](NS(C)(=O)=O)[C@@H]2CO[C@H]2CC[C@@H](c3ccccc3)CC2)n1 (relative stereo) [Example 5] , its % max agonist effect (Emax) with human OX2R (Homo sapiens, UniProt O43614) was recorded as 80.4

// % max agonist effect (Emax) (human OX2R (Homo sapiens, UniProt O43614)) for CS(=O)(=O)N[C@H]1CCN(c2ccc(C#N)nc2)[C@H]1CO[C@H]1CC[C@@H](c2ccccc2)CC1 [Example 145] = 100.6

The reported human OX2R (Homo sapiens, UniProt O43614) % max agonist effect (Emax) of COc1ncc(N2CC[C@H](NS(C)(=O)=O)[C@@H]2CO[C@H]2CC[C@@H](c3ccccc3)CC2)cc1C [Example 55] is 91.4

% max agonist effect (Emax) for human OX2R (Homo sapiens, UniProt O43614) with input CS(=O)(=O)N[C@H]1CCN(c2ncccc2C#N)[C@H]1CO[C@H]1CC[C@@H](c2ccccc2)CC1 [Example 136] equals 100.6

# % max agonist effect (Emax) measured on human OX2R (Homo sapiens, UniProt O43614) for item CS(=O)(=O)N[C@H]1CCN(c2csc(-c3ccncc3)n2)[C@H]1CO[C@H]1CC[C@@H](c2ccccc2)CC1 (relative stereo) [Example 13] = 83.9

The molecule Cc1ccnc(N2CC[C@H](NS(C)(=O)=O)[C@@H]2CO[C@H]2CC[C@@H](c3ccccc3)CC2)n1 [Example 67] on human OX2R (Homo sapiens, UniProt O43614): % max agonist effect (Emax) was 92.6

Log: human OX2R (Homo sapiens, UniProt O43614), molecule C[C@@H]1C[C@H](NS(=O)(=O)N(C)C)[C@H](CO[C@H]2CC[C@@H](c3cccc(F)c3)CC2)N1c1cc(O)c(F)cn1 [Example 94] , % max agonist effect (Emax) = 99.6

// returns % max agonist effect (Emax) for CS(=O)(=O)N[C@H]1CCN(c2cccnc2)[C@H]1CO[C@H]1CC[C@@H](c2ccccc2)CC1 [Example 20] with human OX2R (Homo sapiens, UniProt O43614); value = 101.0

Hey, human OX2R (Homo sapiens, UniProt O43614) data for CS(=O)(=O)N[C@H]1CCN(c2ccc(C(F)(F)F)nc2)[C@H]1CO[C@H]1CC[C@@H](c2ccccc2)CC1 [Example 34] : % max agonist effect (Emax) came out at 99.6

Form: item CS(=O)(=O)N[C@H]1CCN(c2cnccc2C(F)F)[C@H]1CO[C@H]1CC[C@@H](c2ccccc2)CC1 [Example 121] ; test system human OX2R (Homo sapiens, UniProt O43614); % max agonist effect (Emax): 101.1

// % max agonist effect (Emax) (human OX2R (Homo sapiens, UniProt O43614)) for CS(=O)(=O)N[C@H]1CCN(c2cc(=O)c(F)cn2CC(F)F)[C@H]1CO[C@H]1CC[C@@H](c2ccccc2)CC1 [Example 89] = 98.9

The recorded % max agonist effect (Emax) with human OX2R (Homo sapiens, UniProt O43614) for COc1c(F)cnc(N2CC[C@H](NS(C)(=O)=O)[C@@H]2CO[C@H]2CC[C@@H](c3cccc(F)c3)CC2)c1F [Example 100] was 99.6

Reported human OX2R (Homo sapiens, UniProt O43614) % max agonist effect (Emax) for item CS(=O)(=O)N[C@H]1CCN(c2cncnc2)[C@H]1CO[C@H]1CC[C@@H](c2ccccc2)CC1 [Example 42] was 100.9

Record Cn1cc(F)c(=O)cc1N1CC[C@H](NS(C)(=O)=O)[C@@H]1CO[C@H]1CC[C@@H](c2ccccc2)CC1 [Example 88] ; system human OX2R (Homo sapiens, UniProt O43614); % max agonist effect (Emax) = 101.1

% max agonist effect (Emax) for human OX2R (Homo sapiens, UniProt O43614) with input CS(=O)(=O)N[C@H]1CCN(c2cnc3occc3c2)[C@H]1CO[C@H]1CC[C@@H](c2ccccc2)CC1 [Example 92] equals 100.2

// returns % max agonist effect (Emax) for CS(=O)(=O)N[C@H]1CCN(c2cc[nH]c(=O)c2)[C@H]1CO[C@H]1CC[C@@H](c2ccccc2)CC1 [Example 154] with human OX2R (Homo sapiens, UniProt O43614); value = 100.5

Form: item CS(=O)(=O)N[C@H]1CCN(c2ncccc2F)[C@H]1CO[C@H]1CC[C@@H](c2ccccc2)CC1 [Example 131] ; test system human OX2R (Homo sapiens, UniProt O43614); % max agonist effect (Emax): 98.8

% max agonist effect (Emax) for human OX2R (Homo sapiens, UniProt O43614) with input Cc1scnc1N1CC[C@H](NS(C)(=O)=O)[C@@H]1CO[C@H]1CC[C@@H](c2ccccc2)CC1 [Example 84] equals 100.7

Observed % max agonist effect (Emax) on human OX2R (Homo sapiens, UniProt O43614), entry CS(=O)(=O)N[C@H]1CCN(c2cccc(=O)[nH]2)[C@H]1CO[C@H]1CC[C@@H](c2ccccc2)CC1 [Example 148] , equals 99.3

Let me check: CS(=O)(=O)N[C@H]1CCN(c2cccc(C#N)c2)[C@H]1CO[C@H]1CC[C@@H](c2ccccc2)CC1 [Example 147] , system human OX2R (Homo sapiens, UniProt O43614), measured % max agonist effect (Emax) is 74.1

---

Please respond with reported % max agonist effect (Emax) for every item in the list.
Molecular target: human OX2R (Homo sapiens, UniProt O43614)
Construct: expressed in transfected cells; host or cells: Chinese hamster ovary (CHO) cells, kept under G418 selection
Experiment: IPOne (IP-One) orexin receptor agonist assay in CHO cells expressing human OX2R
Assay type: cell-based
Settings: human OX2R; percentage of sample raw value/mean max effect (reference compound at 1 uM with 100% activity)
Dear colleague, please return just the value in %, with no unit written.

% max agonist effect (Emax) reading for "CS(=O)(=O)N[C@H]1CCCN(c2nccc(O)c2F)[C@H]1CO[C@H]1CC[C@@H](c2ccccc2)CC1" : 99.7

Note to self: % max agonist effect (Emax) recorded for "CS(=O)(=O)N[C@H]1CCN(c2ccsc2)[C@H]1CO[C@H]1CC[C@@H](c2ccccc2)CC1" was 99.8

Field % max agonist effect (Emax) (entry "Cc1cccnc1N1CC[C@H](NS(C)(=O)=O)[C@@H]1CO[C@H]1CC[C@@H](c2ccccc2)CC1" ) reads 100

# % max agonist effect (Emax) of "CS(=O)(=O)N[C@H]1CCN(c2cncc(OC(F)F)c2)[C@H]1CO[C@H]1CC[C@@H](c2ccccc2)CC1" = 99.2
